- system.name: EGFR_L718Q (Homo sapiens, UniProt P00533, L718Q)
- Sequence (P00533 25-1210 L718Q): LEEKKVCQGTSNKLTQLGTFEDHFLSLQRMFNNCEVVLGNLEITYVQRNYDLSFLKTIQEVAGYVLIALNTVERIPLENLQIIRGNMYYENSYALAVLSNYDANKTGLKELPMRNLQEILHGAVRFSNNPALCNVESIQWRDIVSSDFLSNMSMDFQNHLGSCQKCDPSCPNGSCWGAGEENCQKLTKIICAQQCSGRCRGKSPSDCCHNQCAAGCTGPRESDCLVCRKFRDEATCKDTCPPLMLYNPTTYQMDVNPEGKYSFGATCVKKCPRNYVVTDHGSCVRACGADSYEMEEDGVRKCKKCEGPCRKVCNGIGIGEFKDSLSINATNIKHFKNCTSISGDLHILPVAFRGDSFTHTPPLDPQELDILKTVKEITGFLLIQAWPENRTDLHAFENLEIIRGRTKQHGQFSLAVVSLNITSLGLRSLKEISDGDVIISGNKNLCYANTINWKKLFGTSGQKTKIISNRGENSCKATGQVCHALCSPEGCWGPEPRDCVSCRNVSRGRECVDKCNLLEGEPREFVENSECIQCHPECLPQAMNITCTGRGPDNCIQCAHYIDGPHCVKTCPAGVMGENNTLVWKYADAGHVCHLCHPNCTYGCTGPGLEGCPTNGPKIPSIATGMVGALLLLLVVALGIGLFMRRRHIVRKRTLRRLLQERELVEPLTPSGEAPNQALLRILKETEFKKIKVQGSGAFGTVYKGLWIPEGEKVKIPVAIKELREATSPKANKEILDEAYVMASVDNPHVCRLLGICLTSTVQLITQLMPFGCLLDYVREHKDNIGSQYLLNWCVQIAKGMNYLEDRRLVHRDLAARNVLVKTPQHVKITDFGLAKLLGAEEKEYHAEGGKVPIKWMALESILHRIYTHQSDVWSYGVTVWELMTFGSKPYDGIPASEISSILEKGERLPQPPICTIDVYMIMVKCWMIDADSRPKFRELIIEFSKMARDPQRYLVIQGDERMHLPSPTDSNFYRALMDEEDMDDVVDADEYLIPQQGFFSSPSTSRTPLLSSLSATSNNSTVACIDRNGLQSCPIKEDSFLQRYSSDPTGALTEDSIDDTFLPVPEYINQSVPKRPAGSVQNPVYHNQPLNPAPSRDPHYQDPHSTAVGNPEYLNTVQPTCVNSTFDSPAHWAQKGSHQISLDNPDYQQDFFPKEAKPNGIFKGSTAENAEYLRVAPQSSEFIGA
- test.name: EGFR kinase activity (AQT0794 peptide, Sox fluorescence)
- condition.details: 1 mM ATP, 2.0 nM enzyme, room temperature
property.name: pIC50
Value format note: pIC50 is -log10 of concentration (mol/L); just state the number.

Field pIC50 (entry C=CC(=O)Nc1cc(Nc2cc(N3OCC[C@@H]3c3cc(F)cc(F)c3)ncn2)c(OC)cc1N1CCC(N2CCN(C3CC3)CC2)CC1 ) reads 8.43

---

- test.name: Solubility screening of malonate salt of Compound I in various solvents at RT
- Format: physicochemical
- condition.details: organic solvent or mixture; ACN, RT
Where a name gives a salt, the structure may show the parent alone.
property.name: solubility

Documented solubility of C=CC(=O)Nc1cc(Nc2cc(N3OCC[C@@H]3c3cc(F)cc(F)c3)ncn2)c(OC)cc1N1CCC(N2CCN(C3CC3)CC2)CC1 [malonate salt of Compound I] : 6 to 18 mg/mL
